Tested on: HOP-92 NSCLC
run_description: NCI tumour cell line growth inhibition, 48 h
The entries below come with measured TGI values attached.

| compound | display_unit | operator_symbol | TGI |
| --- | --- | --- | --- |
| Cc1c[n+](Cc2ccc3ccccc3c2)cn1Cc1ccc2ccccc2c1 | µM | = | 2.02 |
| CC1=CC(C2/C(=N/O)C=C(C)CC2(C)C)C(O)C(C)(C)C1 (configuration not stated) | µM | = | 27.5 |
| C=CCn1c(=O)n(CC=C)c(=O)n(CC=C)c1=O | µM | > | 100 |
| O=C1NC(=O)C(c2c[nH]c3cc(Br)ccc23)=C1c1cn(C(c2ccccc2)(c2ccccc2)c2ccccc2)cn1 | µM | = | 30.3 |
| CCOC(=O)C1=C(Nc2cccc(OC)c2)OCC1=O | µM | > | 100 |
| COC(COC(=O)N1CCN(C=O)CC1)C1=C(N2CC2)C(=O)C(C)=C(N2CC2)C1=O (configuration not stated) | µM | = | 0.919 |
| O=C(NCCCNC(=O)c1ccc2c(O)c(O)ccc2c1)c1ccc2c(O)c(O)ccc2c1 | µM | > | 100 |
| COC(=O)C(=C/c1ccc(OC)cc1)/C(C(=O)O)=C(/C)c1ccccc1 | µM | > | 100 |
| Nc1nc(Br)nc2c1ncn2C1CC(O)C(CO)O1 (configuration not stated) | µM | > | 100 |
| CCN(CC)CCOc1ccc(/C(=C(\C)c2ccc(F)c(OC)c2)c2ccc(Cl)cc2)cc1 | µM | = | 3.68 |
| COc1ccc(C[N+]23C(CC[C@H]2c2ccccc2)CC[C@H]3c2ccccc2)cc1 (some centres not stated) | µM | = | 39.5 |
| Cc1ccc(N(CSc2ccc(Cl)cc2)CSc2ccc(Cl)cc2)cc1 | µM | = | 6.73 |

###

Tested on: HT29 colon
run_description: NCI tumour cell line growth inhibition, 48 h
The entries below come with measured TGI values attached.
readout: TGI

| compound | readout | test_value |
| --- | --- | --- |
| O=C(Nc1cccc(Cl)c1Cl)c1cccc(NC2=C(Cl)C(=O)N(Cc3ccccc3)C2=O)c1 | TGI | > 100 µM |
| O=C1/C(=C\c2cccn2Cc2ccccc2)c2ccccc2N1c1c(Cl)cccc1Cl | TGI | > 100 µM |
| NC(N)=N/N=C/c1cc(Cl)cc(Cl)c1O | TGI | > 100 µM |
| CN(C)C(=O)OCOC(=O)N(C)C | TGI | > 100 µM |
| COC(=O)[C@@H](NC(=O)[C@@H](OC)[C@@H]1Cc2cc3cc(OC4CC(OC5CC(O)C(O)C(C)O5)C(O)C(C)O4)c(C)c(O)c3c(O)c2C(=O)[C@H]1OC1CC(OC2CC(OC3CC(C)(O)C(O)C(C)O3)C(O)C(C)O2)C(O)C(C)O1)C(C)C (stereo not given in full) | TGI | > 32.5 µM |
| COC(=O)c1ccc(/C=C2\N=C(C)OC2=O)cc1 | TGI | > 100 µM |
| O=C(O)c1cc(O)c2c(c1)C(C1c3cc(C(=O)O)cc(O)c3C(=O)c3c(OC4OC(CO)C(O)C(O)C4O)cccc31)c1cccc(OC3OC(CO)C(O)C(O)C3O)c1C2=O (stereo not given) | TGI | > 100 µM |
| Clc1ccc(-c2c(C3=NCCN3)nnn2-c2ccc(Cl)cc2)cc1 | TGI | 36.2 µM |
| O=C(Nc1ccc([N+](=O)[O-])cc1)C1C(=O)C(=O)N(c2ccc([N+](=O)[O-])cc2)C1=O (stereo not given) | TGI | > 100 µM |
| Cc1cn(C2CC(N(O)Cc3ccccc3)C(CO)O2)c(=O)[nH]c1=O (stereo not given) | TGI | > 100 µM |
| CCCCCc1c(C)[nH]c(/C=C2\N=C(c3ccc[nH]3)C=C2CC)c1C | TGI | 0.131 µM |
| Nc1ccc(C(=O)NN2C(=O)C(Cl)C2c2ccccc2Cl)cc1 (stereo not given) | TGI | 23.5 µM |
| COc1cc(/C=C2\C[C@H]3[C@@H]4CC=C5C[C@@H](O)CC[C@]5(C)[C@H]4CC[C@]3(C)C2=O)cc(OC)c1OC | TGI | 47.7 µM |
| Fc1ccc(Nc2cc(-n3nnc4ccccc43)nc3ccccc23)cc1 | TGI | > 100 µM |
| C=C1C(=O)O[C@H]2[C@H]1[C@@H](OC(=O)C=C(C)C)CC1=C[C@@H](C[C@@]3(C)O[C@@H]23)OC1=O | TGI | 12.5 µM |
